# targetOrSystem: Protein phosphatase EYA2 (Homo sapiens) (UniProt O00167)
# Sequence (O00167 whole entry, looked up): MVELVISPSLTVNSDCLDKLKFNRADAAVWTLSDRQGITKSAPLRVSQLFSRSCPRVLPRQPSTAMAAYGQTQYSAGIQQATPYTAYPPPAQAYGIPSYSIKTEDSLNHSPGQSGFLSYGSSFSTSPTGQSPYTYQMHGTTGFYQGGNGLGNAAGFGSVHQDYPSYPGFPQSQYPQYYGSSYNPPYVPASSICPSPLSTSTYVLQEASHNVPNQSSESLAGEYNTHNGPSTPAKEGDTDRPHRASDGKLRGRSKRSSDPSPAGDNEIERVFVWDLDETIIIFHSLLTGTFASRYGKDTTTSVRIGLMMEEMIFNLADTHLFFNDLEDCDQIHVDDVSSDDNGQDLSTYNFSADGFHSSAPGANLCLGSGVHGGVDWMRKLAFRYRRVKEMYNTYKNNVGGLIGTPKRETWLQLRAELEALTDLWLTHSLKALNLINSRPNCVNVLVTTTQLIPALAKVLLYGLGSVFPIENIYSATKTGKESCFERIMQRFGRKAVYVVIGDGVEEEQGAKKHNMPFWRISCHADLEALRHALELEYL
# assayOverview: qHTS for Inhibitors of the Phosphatase Activity of Eya2: Confirmatory Assay for Cherry-picked Compounds; also: nearly all actives have a fitted effect of over 65% in size
# condition: purified EYA2 phosphatase activity, qHTS confirmation; series mostly up to 46.1 µM
The campaign covered roughly 1,300 compounds. About 460 (35%) were called active. Inconclusive results (about 39%) are left out. Calls follow the shape of the dose curve; as a rule, active = well fitted inhibition curve with a large enough effect; inconclusive = small, poorly fitted or top-dose-only effect; inactive = flat fitted curve, though single readings scatter. This is one part of the list.
API: response.call in active, inactive

Task item: Dear colleague, could you share the recorded outcome for O=C(O)c1ccc2c(c1)C(=O)N(c1ccc(/C=C/C(=O)c3ccccc3)cc1)C2=O when you have a moment?
Reply: active

Task item: Which outcome did this test record for the compound O=C(O)c1ccc2c(c1)C(=O)N(c1cccc(-c3nc4ccccc4s3)c1)C2=O ?
Reply: inactive

Task item: Test call for this compound, please: COc1ccc(/C=C(/C#N)C(=O)Nc2ccc(O)cc2)cc1C(=O)O
Reply: active

Task item: What is the recorded call for this compound in the test? O=c1[nH][nH]cc1C=Nc1cc(Cl)ccc1O
Reply: active

Task item: Tell me the recorded outcome of this test for Cc1ccc(SCc2nc(N)nc(Nc3ccccc3C)n2)cc1C .
Reply: inactive

Task item: Entry N#C/C(=C\c1ccc(-c2ccc(C(=O)O)cc2)o1)C(=O)Nc1ccc(F)cc1 : call = ?
Reply: active

Task item: Recorded test outcome, item C#Cc1cccc(NC(=O)CSc2nnc(-c3ccc(C(F)(F)F)cn3)o2)c1
Reply: active

Task item: In this assay, the call recorded for CCOC(=O)c1cc2c(N)c(C(=O)c3ccc(Br)cc3)sc2[nH]c1=O was what?
Reply: active

Task item: Query: recorded result category for COc1ccc(NC(=O)/C(C#N)=C/c2ccc(-c3ccc(Cl)c(C(=O)O)c3)o2)cc1 in this test
Reply: active

Task item: Test call, this compound: O=C(O)c1cc(-c2ccc(/C=C3\NC(=O)N(c4ccc(Cl)cc4)C3=O)o2)ccc1Cl
Reply: active
